Assay: compound binding in COS7 lysate, probe aLAP1, primary screen, cell lysate, small-molecule microarray (AID 1124);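 also: lysate comes from COS7 cells expressing LAP1 and is applied at 0.3 µg/mL; score merges spot fluorescence near 667 nm with signal-to-noise over triplicate slides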
Settings: probe aLAP1, fluorescence, higher = more signal
property: composite z-score
// return a plain number; no unit text

Query: Consider the compound shown here: O=C(CS)NCCCCCCNC(=O)[C@@H]1C[C@@H]2C(=O)N3CCC[C@H]3C(=O)N2[C@@H]1c1cccc(OCCO)c1 What is its recorded composite z-score?
Result: -0.0386

Query: # iterate: C=CC[C@H](OC(=O)Nc1ccc(OC)cc1)c1ccc(O)c2ccccc12
Result: -0.0938

Query: # iterate: COCCCNC(=O)[C@]1(CCC(=O)OC(C)(C)C)N=C(c2ccc(OCCCO)cc2)O[C@@H]1c1ccccc1
Result: 0.62

Query: # iterate: COc1cc(CO)cc(I)c1O[C@H]1C=C(C(=O)NCCO)C[C@@H](N(CC2CCCCC2)C(=O)c2ccc(C(F)(F)F)cc2)[C@@H]1O
Result: 0.621

* * *

Tested on: Sam68 (KHDRBS1)
Test: Sam68 small-molecule binders, primary screen, biochemical, small-molecule microarray, 635 nm fluorescence (AID 1125);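 also: score merges 667 nm channel intensity with signal to noise over triplicate slides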
Settings: small-molecule microarray binding, higher = more signal
property: composite z-score
// return a plain number; no unit text

Query: Consider the molecule shown here: COc1cc(CO)cc(I)c1O[C@H]1C=C(C(=O)NCCO)C[C@@H](N(Cc2ccc(F)cc2)C(=O)C2CCCO2)[C@@H]1O (some centres undefined) What is its recorded composite z-score?
Result: 0.0803

Query: # iterate: CC(C)(C)OC(=O)CC[C@@]1(C(=O)O)N=C(c2ccc(OCCCO)cc2)O[C@@H]1c1ccccc1CN=[N+]=[N-]
Result: 0.76

Query: # iterate: C[C@@H](OCc1ccccc1)C1NC(=O)[C@@]23C(=O)N[C@@H](Cc4ccccc4)C2[C@H](C)[C@@]2(C)O[C@H]2C3/C=C/C/C=C\CNC(=O)CNC1=O (some centres undefined)
Result: -1.28

Query: # iterate: O=C1c2ccccc2[C@](Cc2ccccc2I)(C(=O)NCCN2CCOCC2)[C@H](c2ccc(CO)cc2)N1Cc1ccccc1
Result: 1.3

* * *

Assay: binders of probe aFSTL3 on microarray, primary screen, stem cell growth factor project, biochemical, small-molecule microarray, fluorescence 635/667 (AID 1064);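 also: measures binding of the biotinylated anti-FSTL3 antibody to printed compounds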
Conditions: higher = more signal
composite z-score below 0.4 gives f; composite z-score at or above it gives t.

Query: Does the reported composite z-score for C=CC[C@]12N=C(c3ccc(OCCCO)cc3)O[C@H]1c1ccccc1N(C)C2=O fall at or above the 0.4 mark?
Result: t

Query: # iterate: CC(C)(C)OC(=O)CC[C@]1(C(=O)NCCN2CCOCC2)N=C(c2ccc(OCCCO)cc2)O[C@H]1c1ccccc1
Result: t

Query: # iterate: COCCCNC(=O)[C@]1(Cc2ccccc2N=[N+]=[N-])N=C(c2ccc(OCCCO)cc2)O[C@@H]1c1ccccc1N=[N+]=[N-]
Result: t

Query: # iterate: O=C1C[C@]2(c3ccc([N+](=O)[O-])cc3)C(=O)N(Cc3ccccc3)c3cc(CO)ccc3[C@H]2N1CC12CC3CC(CC(C3)C1)C2
Result: f

Query: # iterate: O=c1cccc(-c2ccc(C(F)(F)F)cc2)o1
Result: f

Query: # iterate: CC(C)(C)OC(=O)CC[C@]1(C(=O)O)N=C(c2ccc(OCCCO)cc2)O[C@H]1c1ccccc1
Result: f

Query: # iterate: C[N+](C)(C)CCCC[C@@H]1NC(=O)[C@@H]2C[C@H](C(=O)O)[C@H](c3ccc(O)cc3)N2C1=O
Result: t

Query: # iterate: COCCOC(=O)N1C(=O)[C@@]2(c3cc(C#CC4=CCCCC4)ccc31)[C@H](C(=O)N1CCN(c3ncccn3)CC1)[C@H]1C(=O)O[C@H](c3ccccc3)[C@H](c3ccccc3)N1[C@@H]2c1ccc(O)cc1
Result: f

* * *

Test system: Chordin-like protein 2 (CHRDL2)
Experiment: CHRDL2 small-molecule binders, primary screen, biochemical, small-molecule microarray, 635 nm fluorescence (AID 1126);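 also: printed compound slides probed with Chrdl2 protein at 4 µg/mL for 1 h at 4 C; score merges 667 nm emission intensity with signal to noise over three replicate slides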
Settings: small-molecule microarray binding, fluorescence 635 nm; higher = more signal
composite z-score below -0.4 gives No; composite z-score at or above it gives Yes.

Query: Does the reported composite z-score for COC(=O)[C@]1(CCS(=O)(=O)c2ccccc2)N=C(c2ccc(OCCCO)cc2)O[C@@H]1c1ccccc1CN=[N+]=[N-] fall at or above the -0.4 mark?
Result: Yes

Query: # iterate: COCCCNC(=O)[C@@H]1c2ccccc2C(=O)N(Cc2ccccc2C(F)(F)F)[C@H]1c1ccc(CO)cc1
Result: No

Query: # iterate: COC(=O)[C@@]1(Cc2ccc(OC)cc2)[C@H]2c3cc(C(=O)N(C)C)n(CCc4c[nH]c5ccc(O)cc45)c3C[C@H]2CN1C(=O)c1ccccc1
Result: Yes

Query: # iterate: CC(C)N1CC=CC23O[C@@H]4C=CCCOC(=O)C4[C@H]2C(=O)N(CCO)[C@@H]3C1=O (stereo partly specified)
Result: No

Query: # iterate: C=CCOC(=O)[C@@H]1[C@H]2C(=O)O[C@H](c3ccccc3)[C@H](c3ccccc3)N2[C@H](c2ccc(OCCOC(=O)[C@H]3C[C@H]4C(=O)N[C@@H](CCCC[N+](C)(C)C)C(=O)N4[C@H]3c3ccc(O)cc3)cc2)[C@@]12C(=O)Nc1ccc(I)cc12
Result: Yes

Query: # iterate: CCCCN1CC=CC23O[C@@H]4/C=C\CCC(C)OC(=O)C4[C@H]2C(=O)N(CCCCCCO)[C@@H]3C1=O (stereo partly specified)
Result: Yes

* * *

Experiment: small-molecule binders of probe aNOTCH2, primary screen, biochemical, small-molecule microarray, 635/667 nm fluorescence (AID 1121);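 also: score merges feature fluorescence read at 667 nm with its signal to noise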
Settings: higher = more signal
composite z-score below -0.04 gives class 0; composite z-score at or above it gives class 1.

Query: Does the reported composite z-score for COCCOC(=O)N1C(=O)[C@@]2(c3cc(C#CC4=CCCCC4)ccc31)[C@H](C(=O)N1CCN(c3ncccn3)CC1)[C@H]1C(=O)O[C@H](c3ccccc3)[C@H](c3ccccc3)N1[C@@H]2c1ccc(O)cc1 fall at or above the -0.04 mark?
Result: class 1

Query: # iterate: O=C(CCCCCCC(=O)Nc1ccccc1)N/N=C/c1ccccc1
Result: class 0

Query: # iterate: [N-]=[N+]=NCc1ccccc1C[C@@]1(C(N)=O)N=C(c2ccc(OCCCO)cc2)O[C@@H]1c1ccccc1CN=[N+]=[N-]
Result: class 1

Query: # iterate: COc1ccc(NN2C(C(O)c3ccccn3)C=CC3C(=O)N(C4CCCCC4)C(=O)C32)cc1 (configuration not stated)
Result: class 1

Query: # iterate: CC(C)(C)OC(=O)CC[C@]1(C(=O)O)N=C(c2ccc(OCCCO)cc2)O[C@H]1c1ccccc1
Result: class 0

Query: # iterate: C=CCC(OC(C)=O)[C@@H]1[C@@H](N(Cc2cc3ccccc3o2)C(=O)Cc2ccc(F)cc2)c2cc(OCCCO)ccc2N1C(=O)c1ccc2ccccc2n1 (some centres not stated)
Result: class 0

Query: # iterate: Cc1ccc(F)cc1S(=O)(=O)N[C@@H]1CCN(Cc2ccc(Oc3ccccc3)cc2)C1
Result: class 0

* * *

Please go through the items and note down their z-score.
Experiment: mitochondrial membrane potential change in A549 cells, profiling panel, cell-based, JC-1 fluorescence, basal, 24 h, 100 nL (AID 1138);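 also: A549 lung adenocarcinoma cells under basal conditions with no added stimulus; test concentration not given here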
Details: higher = more signal

Query: Consider the compound shown here: CC1CC/C=C\[C@H]2OC34C=CCN(c5ccc6ccccc6c5)C(=O)[C@H]3N(C(CO)C(C)C)C(=O)[C@@H]4C2C(=O)O1 (some centres undefined) What is its recorded z-score?
Result: 0.254

Query: # iterate: Cc1ccc(S[C@]2(C(=O)NC(C)C)CC(=O)N(C3Cc4ccccc4C3)[C@@H]2c2ccc(CO)cc2I)cc1
Result: 1.37

Query: # iterate: CCOC(=O)[C@H]1C/C=C/C[C@H](C(=O)OCC)C(=O)O[C@H]2[C@@H](OC)O[C@H](CO)[C@@H](OC(=O)Nc3ccc(OC)cc3)[C@@H]2OC1=O
Result: 2.61

Query: # iterate: COc1cc2c(cc1OC)CN(C(=O)[C@H]1[C@@H]3C(=O)O[C@@H](c4ccccc4)[C@@H](c4ccccc4)N3[C@@H](c3ccc(OCCO)cc3)[C@]13C(=O)Nc1ccc(C#CC4(O)CCCCCC4)cc13)CC2
Result: -1.42

* * *

Assay: E. coli acrAB mutant growth effects, primary screen, E. coli filamentation inducers, strain DRC39, OD650, 24 h (AID 1178);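 also: growth measured as culture turbidity by optical density at 650 nm; test concentration not given here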
Settings: higher = more signal, called active from +8 up or from −8 down
Please go through the items and note down their z-score.
// return a plain number; no unit text

Query: Consider the molecule shown here: CC=CC(O)C1C=CC2C(=O)N(C)C(=O)C2N1N1CCCCC1 (stereo not drawn) What is its recorded z-score?
Result: -1.07

Query: # iterate: COCCOC(=O)N1C(=O)[C@@]2(c3ccccc31)[C@H](c1ccc(OCCO)cc1)N1[C@H](c3ccccc3)[C@H](c3ccccc3)OC(=O)[C@H]1[C@@H]2C(=O)Nc1nc2ccccc2s1
Result: -0.176

Query: # iterate: CC(C)C(O)C1C=CC2C(=O)N(C)C(=O)C2N1N(c1ccccc1)c1ccccc1 (stereo not drawn)
Result: -0.841

Query: # iterate: COC(=O)[C@@]1(Cc2ccccc2)[C@H]2c3cc(C(=O)N4CCCC4)n(C[C@H](O)CO)c3C[C@H]2CN1C(=O)c1ccccc1
Result: -0.685

Query: # iterate: COc1ccc(CCNC(=O)[C@@]2(Sc3ccc(C)cc3)CC(=O)N(Cc3cc(C(F)(F)F)cc(C(F)(F)F)c3)[C@@H]2c2ccc(CO)cc2I)cc1
Result: 0.232

Query: # iterate: COCCCNC(=O)[C@@]1(Sc2ccc(C)cc2)CC(=O)N(C2Cc3ccccc3C2)[C@@H]1c1ccc(CO)cc1I
Result: -0.0635

Query: # iterate: COc1cc(OC)c(C(O)C2C=CC3C(=O)N(c4ccccc4)C(=O)C3N2Nc2ccc(C#N)cc2)cc1Br (stereo not drawn)
Result: -0.628

Query: # iterate: O=C(O)[C@]1(Cc2ccccc2)N=C(c2ccc(OCCCO)cc2)O[C@@H]1c1ccccc1
Result: 0.0717

Query: # iterate: C=CCOC(=O)[C@H]1[C@@H]2C(=O)O[C@@H](c3ccccc3)[C@@H](c3ccccc3)N2[C@@H](c2ccc(OCCOC(=O)[C@H]3C[C@H]4C(=O)N[C@@H](CCCC[N+](C)(C)C)C(=O)N4[C@H]3c3cccc(OCCO)c3)cc2)[C@]12C(=O)Nc1ccc(I)cc12
Result: 0.186

Query: # iterate: COc1cc(CO)cc(I)c1O[C@H]1C=C(C(=O)NCCO)C[C@@H](N(Cc2ccc(F)cc2)C(=O)C2CCCO2)[C@@H]1O (stereo partly drawn)
Result: 2.94

Query: # iterate: CCN(CC)c1ccc(N2CC=CC34O[C@@H]5/C=C\CCC(C)OC(=O)C5[C@H]3C(=O)N(CCO)[C@@H]4C2=O)cc1 (stereo partly drawn)
Result: -0.736

Query: # iterate: COc1ccc(NN2C(C(O)c3ccccn3)C=CC3C(=O)N(C4CCCCC4)C(=O)C32)cc1 (stereo not drawn)
Result: -0.416

Query: # iterate: COc1ccc(C(O)C2C=CC3C(=O)N(c4ccccc4)C(=O)C3N2Nc2ccc(C#N)cc2)c2ccccc12 (stereo not drawn)
Result: -0.483

Query: # iterate: CN1C(=O)[C@@]2(CCS(=O)(=O)c3ccccc3)N=C(c3ccc(OCCCO)cc3)O[C@H]2c2ccccc21
Result: 0.606

Query: # iterate: NC(=O)NCC#Cc1ccc2c(c1)[C@]1(C(=O)N2)[C@H](C(=O)Nc2nc3ccccc3s2)[C@H]2C(=O)O[C@H](c3ccccc3)[C@H](c3ccccc3)N2[C@@H]1c1ccc(O)cc1
Result: 0.296

Query: # iterate: C[N+](C)(C)CCCC[C@@H]1NC(=O)[C@@H]2C[C@H](C(=O)O)[C@H](c3ccc(O)cc3)N2C1=O
Result: 0.233

Query: # iterate: O=C1NC(=O)C2C1C=CC(C(O)c1cc(C(F)(F)F)cc(C(F)(F)F)c1)N2Nc1ccc(Cl)cc1Cl (stereo not drawn)
Result: -1.14

Query: # iterate: CC(C)N1CC=CC23O[C@@H]4C=CCOC(=O)[C@@H]4[C@H]2C(=O)N(C(C)CO)[C@@H]3C1=O (stereo partly drawn)
Result: 0.17

Query: # iterate: C[C@H]1C2=C3C(CC[C@H]4C(OCc5ccc(F)cc5C(F)(F)F)OC[C@](C)([C@@H]34)N(C(=O)OC(C)(C)C)C2)C(CO)C1CO (stereo partly drawn)
Result: -1.36

Query: # iterate: CCOC(=O)C[C@H]1[C@H](OC(=O)c2ccccc2-c2ccccc2)[C@@H](NC(=O)c2ccc3ccccc3n2)c2cc(OCCCO)ccc2N1C(=O)c1ccc2ccccc2n1
Result: 1.33

Query: # iterate: CC1CC/C=C\[C@H]2OC34C=CCN(CCN5CCOCC5)C(=O)[C@H]3N(CCO)C(=O)[C@@H]4C2C(=O)O1 (stereo partly drawn)
Result: -0.0987

Query: # iterate: [N-]=[N+]=Nc1ccccc1C[C@]1(C(=O)NCc2ccccc2)N=C(c2ccc(OCCCO)cc2)O[C@H]1c1ccccc1
Result: 0.515

Query: # iterate: CC(C)N1CC=CC23O[C@@H]4C=CCCOC(=O)C4[C@H]2C(=O)N(CCO)[C@@H]3C1=O (stereo partly drawn)
Result: -0.141

Query: # iterate: CC=CC(O)C1C=CC2C(=O)N(C)C(=O)C2N1Nc1ccc([N+](=O)[O-])cc1[N+](=O)[O-] (stereo not drawn)
Result: -0.476

Query: # iterate: O=C(CS)NCCCCCCNC(=O)[C@@H]1C[C@@H]2C(=O)N3CCC[C@H]3C(=O)N2[C@@H]1c1cccc(OCCO)c1
Result: 0.743

Query: # iterate: COc1cc2c(cc1OC)CN(C(=O)[C@H]1[C@@H]3C(=O)O[C@@H](c4ccccc4)[C@@H](c4ccccc4)N3[C@@H](c3ccc(OCCO)cc3)[C@]13C(=O)Nc1ccc(C#CC4(O)CCCCCC4)cc13)CC2
Result: 0.457

Query: # iterate: CCOC(=O)C[C@H]1[C@H](OC(=O)c2ccc(C(=O)c3ccccc3)cc2)[C@@H](NC(=O)c2ccc3ccccc3c2)c2cc(OCCCO)ccc2N1C(=O)c1ccccc1
Result: 0.347

Query: # iterate: [N-]=[N+]=NCc1ccccc1[C@H]1OC(c2ccc(OCCCO)cc2)=N[C@@]1(CCS(=O)(=O)c1ccccc1)C(N)=O
Result: 0.0575
